# assayName: chemical genetic growth profiling, strain panel (AID 1159580);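 also: tested at 20 µM; growth read once vehicle control cultures reached saturation at 30 °C; 1 = growth at the plate median or of vehicle wells; lower values mean less growth of the strain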
# runConditions: S. cerevisiae deletion strains, growth OD, locus YGL253W, strain hxk2, hits give low values
The whole screen tested about 5,500 compounds, of which about 2,000 (36%) were called active. Another 18% or so got no clear call; they are omitted. Some of the results follow.
propertyName: normalized growth

Answered cases to consult:
{"columns": ["compound", "assayResult"],
 "data": [
  ["CCC(C(=O)O)c1ccccc1 (centres undefined)", "0.99 (inactive)"],
  ["CNc1ccccc1C(=O)N1CCc2c([nH]c3ccccc23)C1=O", "0.989 (inactive)"]
]}

State its normalized growth for this compound: Cc1cccc(Nc2cc(Cl)nc(SCC(=O)O)n2)c1C
1.01 (inactive)

State its normalized growth for this compound: CCCCCC(=O)O[C@]1(C(C)=O)CCC2C3CCC4=CC(=O)CC[C@]4(C)C3CC[C@@]21C (some centres undefined)
1.01 (inactive)
